# assayProcedure: NOD1 signaling inhibitors, primary screen, cell-based, luminescence, uHTS (AID 1578);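 further: HEK-293T reporter cells stimulated with the NOD1 agonist gamma-tri-DAP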
# runParameters: NOD1-driven NF-kB luciferase reporter cells, at 4 µM
About 3,000 (1%) of roughly 290,000 compounds were called active. No stated cut-off is given here; in the data, active means inhibition mostly above about 36% (no sharp cut-off); inactive means mostly below about 34%. What follows is part of a selection rich in actives, with near analogues and random picks from the rest.
Pick one: yes (1) (active), no (0) (inactive)

Field: outcome | Entry: COc1ccc(C(=O)n2c(N)nc3ccccc32)cc1OC
no (0)

Field: outcome | Entry: CCOP(=O)(OCC)C(NC(C)=O)C(=O)c1ccccc1 (stereo unspecified)
no (0)

Field: outcome | Entry: Cc1nnc(NC(=O)c2nc(S(=O)(=O)Cc3ccccc3C)ncc2Cl)s1
no (0)

Field: outcome | Entry: Cc1nc2nc[nH]n2c(=O)c1CC(=O)O
no (0)

Field: outcome | Entry: O=S1(=O)C=C(SCc2cccc(Cl)c2)Nc2ccccc21
no (0)

Field: outcome | Entry: CCCn1c(SCC(=O)Nc2nonc2C)nnc1-c1ccoc1C
no (0)

Field: outcome | Entry: COc1ccccc1OC(=O)C1CC(=O)N(c2ccc(Cl)cc2)C1 (stereo unspecified)
no (0)

Field: outcome | Entry: COc1cc(NC(=O)COc2ccc(Cl)cc2)ccc1-c1cc2ccccc2oc1=O
no (0)

Field: outcome | Entry: COc1ccc2[nH]c(=O)c(CN(CC3CCCO3)C(=S)Nc3ccccc3)cc2c1 (stereo unspecified)
no (0)

Field: outcome | Entry: COc1ccc2[nH]c(=O)c(CN(CC3CCCO3)C(=S)Nc3cccc(C)c3)cc2c1 (stereo unspecified)
yes (1)

Field: outcome | Entry: Fc1ccc(CSc2ncnc3nc[nH]c23)cc1
no (0)

Field: outcome | Entry: CCn1c2ccccc2c2cc(/C=N/NC(=O)c3ccc(O)cc3)ccc21
no (0)

Field: outcome | Entry: COc1cc(Cl)cc(/C=C/c2ccc3cccc(O)c3n2)c1OC
no (0)

Field: outcome | Entry: Cc1ccc(C(=O)n2c(N)nc3ccccc32)cc1
yes (1)

Field: outcome | Entry: NC(=O)c1nnn(-c2ccccc2)c1N
no (0)

Field: outcome | Entry: Cc1ccc(C(=O)n2c3ccccc3c3ccccc32)cc1
no (0)

Field: outcome | Entry: C/C(=N\NC(=O)c1nnn(-c2nonc2N)c1CN(C)c1ccccc1)c1cccs1
no (0)

Field: outcome | Entry: COc1ccc(/C=C/c2ccc3cccc(O)c3n2)cc1Br
no (0)

Field: outcome | Entry: CC1(C)CC(=O)c2cc(N=C/C(C(=O)c3ccccc3)=C(\O)c3ccccc3)c(=O)oc2C1
no (0)

Field: outcome | Entry: COc1ccc(NC(=S)NC(NC(C)=O)C(Cl)(Cl)Cl)c([N+](=O)[O-])c1 (stereo unspecified)
no (0)

Field: outcome | Entry: COc1ccc(/C=C/c2ccc3cccc(O)c3n2)c(OC)c1OC
no (0)

Field: outcome | Entry: Cc1cccc(CS(=O)(=O)c2ncc(Cl)c(C(=O)NCc3ccc4c(c3)OCO4)n2)c1
yes (1)

Field: outcome | Entry: Nc1ccc(C(=O)n2c3ccccc3c3ccccc32)cc1
yes (1)

Field: outcome | Entry: O=C(CS(=O)(=O)c1ccccc1)NCc1ccc(Cl)cc1
no (0)

Field: outcome | Entry: Cc1cccc2c(N)c3c(nc12)CCCC3 (tested in a mixture with another compound)
yes (1)

Field: outcome | Entry: Cc1[nH]n(C(N)=S)c(=O)c1N=Nc1ccc(Br)cc1
no (0)

Field: outcome | Entry: COc1cc(/C=C(/C(=O)c2cccs2)c2nc3ccccc3[nH]2)cc(OC)c1O
yes (1)

Field: outcome | Entry: Nc1c2c(nc3ccccc13)CCCC2
no (0)

Field: outcome | Entry: COc1ccccc1/C=C/c1ccc2cccc(O)c2n1
no (0)

Field: outcome | Entry: Cc1ccc(C)c(OC(=O)c2ccncc2)c1
yes (1)

Field: outcome | Entry: COc1ccc(/C=C/c2ccc3c(Br)ccc(O)c3n2)cc1
no (0)

Field: outcome | Entry: C=CCOc1ccc(Br)cc1/C=C1/SC(=Nc2ccc(C(=O)O)cc2)NC1=O
yes (1)

Field: outcome | Entry: CC(C)Cc1nc(N2CCN(C(=O)c3ccco3)CC2)c(C#N)c2c1CCC2
no (0)

Field: outcome | Entry: O=C(c1cc(F)ccc1F)C1CCCN(C(=O)CCN2CCCCO2)C1 (stereo unspecified)
no (0)

Field: outcome | Entry: Cc1ccc(NC(=O)c2nc(S(=O)(=O)Cc3ccccc3)ncc2Cl)cc1
no (0)

Field: outcome | Entry: COc1ccc(S(=O)(=O)N2CCC(C(=O)N[C@@H](C)C(=O)NCc3cccc(OC)c3)CC2)cc1
no (0)

Field: outcome | Entry: CCn1c2ccccc2c2cc(/C=N/NC(=O)c3cc(O)cc(O)c3)ccc21
yes (1)

Field: outcome | Entry: C/C(=N\NC(=O)c1nn(C)cc1Br)c1ccncc1
no (0)

Field: outcome | Entry: Cc1cccc2c(C(=O)O)c3c(nc12)CCCCC3
no (0)

Field: outcome | Entry: O=C(Cc1cccc2ccccc12)N/N=C1\CCCc2ccccc21
no (0)

Field: outcome | Entry: CC(=O)n1c2ccccc2c2ccccc21
no (0)

Field: outcome | Entry: CC(C)Cc1nc(N2CCN(C(=O)c3ccco3)CC2)c(C#N)c2c1CCCC2
no (0)

Field: outcome | Entry: Nc1nc2ccccc2n1C(=O)c1ccccc1
no (0)

Field: outcome | Entry: COc1cccc(/C=C/c2ccc3cccc(O)c3n2)c1
no (0)

Field: outcome | Entry: COc1cc(/C=C(\C#N)c2nc3ccccc3[nH]2)cc(OC)c1O
no (0)

Field: outcome | Entry: O=C1C2C3C=CC(C3)C2C(=O)N1c1ccncc1 (stereo unspecified)
no (0)
